TARGET: BTK, recombinant human catalytic domain (aa 393-659) (Homo sapiens (Human))
EXPERIMENT: In vitro BTK kinase activity measured by time-resolved fluorescence resonance energy transfer (trFRET)
Format: biochemical
CONDITION_SET: read-out: Btk IC50
pIC50: −log10 of the molar value.
PARAMETER: pIC50

INSERT INTO assay_data (compound, target, parameter, value_reported) VALUES
  ('C=CC(=O)Nc1cncc(-c2ccc(C(N)=O)c3[nH]ccc23)c1', 'BTK, recombinant human catalytic domain (aa 393-659) (Homo sapiens (Human))', 'pIC50', '> 7.00'),
  ('C=CC(=O)Nc1cc(OCc2nccs2)ccc1-c1ccc(C(N)=O)c2[nH]ccc12', 'BTK, recombinant human catalytic domain (aa 393-659) (Homo sapiens (Human))', 'pIC50', '5.00 to 6.00'),
  ('C=CC(=O)Nc1cc(OCc2nccs2)cc(-c2ccc(C(N)=O)c3[nH]ccc23)c1', 'BTK, recombinant human catalytic domain (aa 393-659) (Homo sapiens (Human))', 'pIC50', '6.00 to 7.00'),
  ('C=CC(=O)Nc1cccc(-c2ccc(C(N)=O)c3[nH]c(C4=CCN(S(C)(=O)=O)CC4)cc23)c1C', 'BTK, recombinant human catalytic domain (aa 393-659) (Homo sapiens (Human))', 'pIC50', '> 7.00'),
  ('CCC(Cl)C(=O)Nc1cccc(-c2ccc(C(N)=O)c3[nH]c(C4=CCN(S(C)(=O)=O)CC4)cc23)c1C (centres unmarked)', 'BTK, recombinant human catalytic domain (aa 393-659) (Homo sapiens (Human))', 'pIC50', '> 7.00'),
  ('C=CC(=O)N1CC(N(C)c2ccc(C(N)=O)c3[nH]c(C4(O)COC4)cc23)C1 [E.9.22]', 'BTK, recombinant human catalytic domain (aa 393-659) (Homo sapiens (Human))', 'pIC50', '6.00 to 7.00'),
  ('C=CC(=O)N1CCO[C@H](c2ccc(C(N)=O)c3[nH]c(-c4cnn(C)c4)cc23)C1', 'BTK, recombinant human catalytic domain (aa 393-659) (Homo sapiens (Human))', 'pIC50', '> 7.00'),
  ('Cc1c(NC(=O)/C=C/CN2CCN(C)CC2)cccc1-c1ccc(C(N)=O)c2[nH]ccc12', 'BTK, recombinant human catalytic domain (aa 393-659) (Homo sapiens (Human))', 'pIC50', '5.00 to 6.00');

* * *

TARGET: BTK, recombinant human catalytic domain (aa 393-659) (Homo sapiens (Human))
EXPERIMENT: In vitro BTK kinase activity measured by time-resolved fluorescence resonance energy transfer (trFRET)
Assay type: biochemical
CONDITION_SET: read-out: Btk IC50
pIC50: −log10 of the molar value.
PARAMETER: pIC50

INSERT INTO results (molecule, value_reported) VALUES
  ('C=CC(=O)N1CCC[C@H](c2ccc(C(N)=O)c3[nH]c(C)cc23)C1 [E.9.8]', '> 7.00'),
  ('Cc1c(-c2ccc(C(N)=O)c3[nH]c(-c4cnn(CCO)c4)cc23)cccc1-n1cnc2ccccc2c1=O [M.1.2]', '> 7.00'),
  ('C=C(C)C(=O)Nc1cccc(-c2ccc(C(N)=O)c3[nH]c(C4=CCN(S(C)(=O)=O)CC4)cc23)c1C [D.7.5]', '> 7.00'),
  ('C=CC(=O)N1C[C@@H](CO)C[C@@H](c2ccc(C(N)=O)c3[nH]ccc23)C1 [E.9.45]', '5.00 to 6.00'),
  ('C=CC(=O)N1CC(N(C)c2ccc(C(N)=O)c3[nH]c(C)cc23)C1 [E.9.25]', '> 7.00'),
  ('C=CC(=O)N1CCOC[C@@H](c2ccc(C(N)=O)c3[nH]ccc23)C1 [E.9.38]', '> 7.00'),
  ('C=CC(=O)N1CC[C@H](c2ccc(C(N)=O)c3[nH]c(C)cc23)C1 [E.9.41*]', '6.00 to 7.00'),
  ('C=CC(=O)N1CCOC[C@H](c2ccc(C(N)=O)c3[nH]ccc23)C1 [E.9.39]', '5.00 to 6.00');

* * *

TARGET: BTK, recombinant human catalytic domain (aa 393-659) (Homo sapiens (Human), UniProt Q06187)
Sequence (Q06187 393-659): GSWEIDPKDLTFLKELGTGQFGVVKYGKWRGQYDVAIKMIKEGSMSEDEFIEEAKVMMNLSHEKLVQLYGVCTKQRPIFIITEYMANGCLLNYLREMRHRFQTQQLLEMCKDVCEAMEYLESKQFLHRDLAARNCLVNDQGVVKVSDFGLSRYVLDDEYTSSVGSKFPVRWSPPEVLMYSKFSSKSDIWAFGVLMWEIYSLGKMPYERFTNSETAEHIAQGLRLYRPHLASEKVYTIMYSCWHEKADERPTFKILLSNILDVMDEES
EXPERIMENT: In vitro BTK kinase activity measured by time-resolved fluorescence resonance energy transfer (trFRET)
Type: biochemical
CONDITION_SET: read-out: Btk IC50
pIC50: −log10 of the molar value.
We begin with a simple list: items and their reported pIC50.
PARAMETER: pIC50

INSERT INTO results (compound, parameter, value_reported) VALUES
  ('Cc1c(NC(=O)CC(C)C)cccc1-c1ccc(C(N)=O)c2[nH]c(C3=CCN(S(C)(=O)=O)CC3)cc12 [D.7.35]', 'pIC50', '> 7.00'),
  ('COc1ccc(C(=O)N[C@@H]2CCCN(c3ccc(C(N)=O)c4[nH]ccc34)C2)cc1 [O.1.9*]', 'pIC50', '5.00 to 6.00'),
  ('Cc1c(NC(=O)C(F)(F)Cl)cccc1-c1ccc(C(N)=O)c2[nH]c(C3=CCN(S(C)(=O)=O)CC3)cc12 [D.7.7]', 'pIC50', '> 7.00'),
  ('CCC(=O)N1CC[C@H](c2ccc(C(N)=O)c3[nH]c(C)cc23)C1 [E.10.1]', 'pIC50', '6.00 to 7.00'),
  ('C=CC(=O)N1CC(N(C)c2ccc(C(N)=O)c3[nH]c(-c4ccc5c(c4)COCC5)cc23)C1 [E.9.3]', 'pIC50', '> 7.00'),
  ('Cc1c(NC(=O)c2cnsc2)cccc1-c1ccc(C(N)=O)c2[nH]c(C3=CCN(S(C)(=O)=O)CC3)cc12 [D.7.38]', 'pIC50', '> 7.00'),
  ('C=CC(=O)Nc1cccc(-c2ccc(C(N)=O)c3[nH]ccc23)c1OC [E.1.30]', 'pIC50', '6.00 to 7.00'),
  ('Cc1c(NC(=O)C2CCCC2)cccc1-c1ccc(C(N)=O)c2[nH]c(C3=CCN(S(C)(=O)=O)CC3)cc12 [D.7.31]', 'pIC50', '> 7.00'),
  ('C=CC(=O)Nc1cc(OCc2ccccc2)cc(-c2ccc(C(N)=O)c3[nH]ccc23)c1 [E.1.14]', 'pIC50', '5.00 to 6.00'),
  ('Cn1cc(-c2cc3c(N4CCC[C@@H](NC(=O)c5ccc(C(F)F)cc5)C4)ccc(C(N)=O)c3[nH]2)cn1 [O.1.22*]', 'pIC50', '6.00 to 7.00'),
  ('C=CC(=O)N1CCC[C@@H](c2cnc(C(N)=O)c3[nH]ccc23)C1 [E.9.51]', 'pIC50', '6.00 to 7.00'),
  ('Cc1c(NC(=O)/C=C/CN(C)C)cccc1-c1cnc(C(N)=O)c2[nH]ccc12 [J.2.1]', 'pIC50', '6.00 to 7.00'),
  ('Cc1c(-c2ccc(C(N)=O)c3[nH]c(C4=CCN(C)CC4)cc23)cccc1-n1cnc2ccccc2c1=O [H.1.1]', 'pIC50', '> 7.00');

* * *

IC50 values, listed per item
TARGET: BTK, recombinant human catalytic domain (aa 393-659) (Homo sapiens (Human))
EXPERIMENT: In vitro BTK kinase activity measured by time-resolved fluorescence resonance energy transfer (trFRET)
Format: biochemical
CONDITION_SET: trFRET, 0.001 mM ATP, biotin-TYR1 peptide substrate; read-out: Btk IC50
PARAMETER: IC50

INSERT INTO results (compound, target, value_reported) VALUES
  ('Cc1c(-c2ccc(C(N)=O)c3[nH]c(C4=CCN(S(C)(=O)=O)CC4)cc23)cccc1N(CCO)C(=O)c1ccc(C(F)F)cc1 [A.4.14]', 'BTK, recombinant human catalytic domain (aa 393-659) (Homo sapiens (Human))', '< 0.1 µM'),
  ('CN1CCC=C(C(=O)Nc2cccc(-c3ccc(C(N)=O)c4[nH]ccc34)c2)C1 [E.2.2]', 'BTK, recombinant human catalytic domain (aa 393-659) (Homo sapiens (Human))', '1 to 10 µM'),
  ('Cc1c(NC(=O)c2nccs2)cccc1-c1ccc(C(N)=O)c2[nH]c(-c3ccccc3CNC(=O)COc3ccc(F)cc3)cc12 [D.1.7]', 'BTK, recombinant human catalytic domain (aa 393-659) (Homo sapiens (Human))', '1 to 10 µM'),
  ('CC(=O)Nc1cccc(-c2ccc(C(N)=O)c3[nH]ccc23)c1C [D.8.12]', 'BTK, recombinant human catalytic domain (aa 393-659) (Homo sapiens (Human))', '1 to 10 µM'),
  ('Cc1c(N)cccc1-c1ccc(C(N)=O)c2[nH]c(C3=CCN(S(C)(=O)=O)CC3)cc12 [A.4.5]', 'BTK, recombinant human catalytic domain (aa 393-659) (Homo sapiens (Human))', '< 0.1 µM'),
  ('Cc1c(-c2ccc(C(N)=O)c3[nH]c(-c4cnn(CC(C)(C)O)c4)cc23)cccc1-n1cnc2ccc(F)cc2c1=O [A.14.1]', 'BTK, recombinant human catalytic domain (aa 393-659) (Homo sapiens (Human))', '< 0.1 µM'),
  ('C=CC(=O)Nc1cccc(-c2ccc(C(N)=O)c3[nH]c(-c4cccnc4F)cc23)c1C [A.1.17]', 'BTK, recombinant human catalytic domain (aa 393-659) (Homo sapiens (Human))', '< 0.1 µM'),
  ('Cc1c(NC(=O)/C=C/c2cccnc2)cccc1-c1ccc(C(N)=O)c2[nH]ccc12 [D.8.4]', 'BTK, recombinant human catalytic domain (aa 393-659) (Homo sapiens (Human))', '0.1 to 1 µM'),
  ('CC(=O)N1CC=C(c2cc3c(-c4cccc(-n5cnc6ccc(F)cc6c5=O)c4C)ccc(C(N)=O)c3[nH]2)CC1 [A.3.2]', 'BTK, recombinant human catalytic domain (aa 393-659) (Homo sapiens (Human))', '< 0.1 µM'),
  ('C=CC(=O)Nc1cccc(-c2ccc(C(N)=O)c3[nH]c(-c4cncnc4)cc23)c1C [A.1.10]', 'BTK, recombinant human catalytic domain (aa 393-659) (Homo sapiens (Human))', '< 0.1 µM'),
  ('C=CC(=O)Nc1cccc(-c2ccc(C(N)=O)c3[nH]c(-c4cnn(C(C)C)c4)cc23)c1C [A.1.4]', 'BTK, recombinant human catalytic domain (aa 393-659) (Homo sapiens (Human))', '< 0.1 µM'),
  ('NC(=O)c1ccc(-c2cncnc2)c2cc(-c3ccc(F)cc3)[nH]c12 [A.9.1]', 'BTK, recombinant human catalytic domain (aa 393-659) (Homo sapiens (Human))', '0.1 to 1 µM'),
  ('Cc1c(N)cccc1-c1ccc(C(N)=O)c2[nH]ccc12 [Example 16]', 'BTK, recombinant human catalytic domain (aa 393-659) (Homo sapiens (Human))', '1 to 10 µM'),
  ('C=CC(=O)NCc1cccc(-c2ccc(C(N)=O)c3[nH]c(C4=CCN(S(C)(=O)=O)CC4)cc23)c1 [A.4.1]', 'BTK, recombinant human catalytic domain (aa 393-659) (Homo sapiens (Human))', '< 0.1 µM'),
  ('C=CC(=O)N1CCc2cc(C(N)=O)c3[nH]ccc3c21 [Example 4]', 'BTK, recombinant human catalytic domain (aa 393-659) (Homo sapiens (Human))', '0.1 to 1 µM'),
  ('Cc1c(NC(=O)c2nccs2)cccc1-c1ccc(C(N)=O)c2[nH]c(-c3ccccc3CN)cc12 [Example 1]', 'BTK, recombinant human catalytic domain (aa 393-659) (Homo sapiens (Human))', '0.1 to 1 µM'),
  ('C=CC(=O)Nc1cccc(-c2ccc(C(N)=O)c3[nH]c(-c4cccc(C(=O)OC)c4)cc23)c1C [A.1.19]', 'BTK, recombinant human catalytic domain (aa 393-659) (Homo sapiens (Human))', '< 0.1 µM'),
  ('C=CC(=O)Nc1cccc(-c2ccc(C(N)=O)c3[nH]c(-c4ccnc(OC)c4)cc23)c1C [A.1.13]', 'BTK, recombinant human catalytic domain (aa 393-659) (Homo sapiens (Human))', '< 0.1 µM'),
  ('C=CC(=O)Nc1cccc(-c2ccc(C(N)=O)c3[nH]c(-c4ccc(F)nc4)cc23)c1C [A.1.16]', 'BTK, recombinant human catalytic domain (aa 393-659) (Homo sapiens (Human))', '< 0.1 µM'),
  ('Cc1ccc(-c2cc3c(-c4ccsc4)ccc(C(N)=O)c3[nH]2)cc1 [A.8.10]', 'BTK, recombinant human catalytic domain (aa 393-659) (Homo sapiens (Human))', '0.1 to 1 µM'),
  ('C=CC(=O)Nc1cccc(-c2ccc(C(N)=O)c3[nH]c(-c4cccc(C(=O)N5CCN(C)CC5)c4)cc23)c1C [A.1.31]', 'BTK, recombinant human catalytic domain (aa 393-659) (Homo sapiens (Human))', '< 0.1 µM'),
  ('CS(=O)(=O)N1CC=C(c2cc3c(N4CCC[C@@H](N5CCCCC5=O)C4)ccc(C(N)=O)c3[nH]2)CC1 [Example 12]', 'BTK, recombinant human catalytic domain (aa 393-659) (Homo sapiens (Human))', '0.1 to 1 µM'),
  ('CS(=O)(=O)N1CC=C(c2cc3c(-c4ccccc4)ccc(C(N)=O)c3[nH]2)CC1 [A.4.7]', 'BTK, recombinant human catalytic domain (aa 393-659) (Homo sapiens (Human))', '< 0.1 µM'),
  ('CS(=O)(=O)N1CC=C(c2cc3c(-c4cccc(Nc5ccnc(C#N)n5)c4)ccc(C(N)=O)c3[nH]2)CC1 [A.4.8]', 'BTK, recombinant human catalytic domain (aa 393-659) (Homo sapiens (Human))', '< 0.1 µM');
